# Target Of Assay: T1, p204 HINb (Mus musculus, UniProt P0DOV2 427-619)
# T1 sequence: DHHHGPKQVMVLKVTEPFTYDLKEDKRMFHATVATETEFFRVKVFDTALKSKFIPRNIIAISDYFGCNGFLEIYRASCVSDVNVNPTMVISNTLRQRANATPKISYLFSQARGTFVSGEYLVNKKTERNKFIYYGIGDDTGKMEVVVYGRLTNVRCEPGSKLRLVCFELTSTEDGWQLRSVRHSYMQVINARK
# Assay Info: fluorescence polarization
Endpoint Label: pKd
Give only the number. pKd is defined as minus log10 of concentration in molar units.

Lab note: 30 mer dsDNA (dsDNA) DNA 1: CCATCAGAAAGAGGTTTAATATTTTTGTGA DNA 2: TCACAAAAATATTAAACCTCTTTCTGATGG gave pKd of 3.80

This collection of values is drawn from paper PMC7969034.
